Here, each record is paired with measured melting point data.

- compound: "C/C=C/COc1ccc(N/C=N/O)cc1"
  melting point: "142.5 to 146 °C"
- compound: "CCOC(=O)CCCCCOc1ccc(N/C=N/O)cc1"
  melting point: "102 to 103.5 °C"
- compound: "O/N=C/Nc1ccc2c(c1)OCO2"
  melting point: "165 to 165.5 °C"
- compound: "COc1ccc(N/C=N/O)cc1"
  melting point: "139 to 140 °C"
- compound: "O/N=C/Nc1ccc(OCCCCCN2CCCC2)cc1"
  melting point: "116.5 to 117.5 °C"
- compound: "Cc1cc(C)c(N/C=N/O)c(Br)c1"
  melting point: "163.5 to 164.5 °C"
- compound: "CCSCCOc1ccc(N/C=N/O)cc1"
  melting point: "104 to 106 °C"
- compound: "CC(=O)OCCCCCOc1ccc(N/C=N/O)cc1"
  melting point: "101.5 to 104 °C"
- compound: "CN(C)CCCCOc1ccc(N/C=N/O)cc1"
  melting point: "100 to 102 °C"
- compound: "CN1CCCC1CCOc1ccc(N/C=N/O)cc1 (stereo not drawn)"
  melting point: "99.5 to 102.5 °C"
- compound: "OCc1ccc(N/C=N/O)cc1"
  melting point: "169.5 to 170 °C"
- compound: "O/N=C/Nc1ccc(OCc2ccc3ccccc3n2)cc1"
  melting point: "174.5 to 175.5 °C"
- compound: "O/N=C/Nc1ccc(OCc2ccc(F)cc2)cc1"
  melting point: "165.5 to 166 °C"
- compound: "N#CCCCOc1ccc(N/C=N/O)cc1"
  melting point: "139.5 to 141 °C"
- compound: "CC(=O)OCC(COc1ccc(N/C=N/O)cc1)OC(C)=O (stereo not drawn)"
  melting point: "133 to 134.5 °C"
- compound: "COc1ccc(COc2ccc(N/C=N/O)cc2)cc1"
  melting point: "167 to 167.5 °C"
- compound: "COCCOc1ccc(N/C=N/O)cc1"
  melting point: "104 to 107 °C"
- compound: "Cc1cc(Br)ccc1N/C=N/O"
  melting point: "161 to 161.5 °C"
- compound: "O=C([O-])CCCCOc1ccc(N/C=N/O)cc1.[Na+]"
  melting point: "> 300 °C"
- compound: "N#Cc1cccc(COc2ccc(N/C=N/O)cc2)c1"
  melting point: "143 to 146 °C"
- compound: "O/N=C/Nc1ccc(-n2ccc(C(F)(F)F)n2)cc1"
  melting point: "165 to 167 °C"
- compound: "O/N=C/Nc1ccc(OCC2COCO2)cc1 (stereo not drawn)"
  melting point: "157.5 to 158 °C"
- compound: "Cc1ccc(N/C=N/O)cc1F"
  melting point: "156 to 157 °C"
- compound: "Cc1ccc(N/C=N/O)c(Cl)c1"
  melting point: "151 to 152.5 °C"
- compound: "O/N=C/Nc1ccc(OCc2ccco2)cc1"
  melting point: "158.5 to 159.5 °C"
- compound: "CCc1cccc(N/C=N/O)c1"
  melting point: "115.5 to 116.5 °C"
- compound: "CCCCCCCc1ccc(N/C=N/O)cc1"
  melting point: "119 to 120.5 °C"
- compound: "O/N=C/Nc1ccc(OCc2ccsc2)cc1"
  melting point: "165 to 166 °C"
- compound: "O/N=C/Nc1ccc(Br)c2ccccc12"
  melting point: "167.5 to 168 °C"
- compound: "COc1ccc(C)cc1N/C=N/O"
  melting point: "136.5 to 139 °C"
- compound: "Cc1cc(C)c(N/C=N/O)c(C)c1"
  melting point: "168 to 169 °C"
- compound: "CCCCCOc1ccc(N/C=N/O)cc1"
  melting point: "126 to 137.5 °C"
- compound: "N#Cc1ccc(-c2ccc(N/C=N/O)cc2)cc1"
  melting point: "194 to 195 °C"
- compound: "COC(=O)c1ccc(N/C=N/O)cc1"
  melting point: "167 to 167.5 °C"
- compound: "OCCc1ccc(N/C=N/O)cc1"
  melting point: "138 to 140 °C"
- compound: "CC(C)OCCOc1ccc(N/C=N/O)cc1"
  melting point: "113 to 114 °C"
- compound: "CCc1cc(C#N)ccc1N/C=N/O"
  melting point: "144 to 145.5 °C"
- compound: "CC#CCOc1ccc(N/C=N/O)cc1"
  melting point: "171.5 to 172 °C"
- compound: "O/N=C/Nc1cc(C(F)(F)F)cc(C(F)(F)F)c1"
  melting point: "122.5 to 124 °C"
- compound: "COc1cccc(C)c1N/C=N/O"
  melting point: "145 to 146 °C"
- compound: "O/N=C/Nc1ccc(OCc2ccncc2)cc1"
  melting point: "180 to 180.5 °C"
- compound: "CN(C)CCOc1ccc(N/C=N/O)cc1"
  melting point: "118 to 120 °C"
- compound: "COCCOCCOc1ccc(N/C=N/O)cc1"
  melting point: "80.5 to 81.5 °C"
- compound: "O/N=C/Nc1ccc(OCCn2cccc2)cc1"
  melting point: "150.5 to 151.5 °C"
- compound: "CC(C)Sc1ccc(N/C=N/O)cc1"
  melting point: "144.1 to 144.2 °C"
